# ASSAYED TARGET: T1, TRCW5 antigen (CD3δε-Fc-Avi) (biotinylated (site not stated))
# T1 construct: also called recombinant CD3
# T1 sequence (chain, as listed by the source mutant limits assumed): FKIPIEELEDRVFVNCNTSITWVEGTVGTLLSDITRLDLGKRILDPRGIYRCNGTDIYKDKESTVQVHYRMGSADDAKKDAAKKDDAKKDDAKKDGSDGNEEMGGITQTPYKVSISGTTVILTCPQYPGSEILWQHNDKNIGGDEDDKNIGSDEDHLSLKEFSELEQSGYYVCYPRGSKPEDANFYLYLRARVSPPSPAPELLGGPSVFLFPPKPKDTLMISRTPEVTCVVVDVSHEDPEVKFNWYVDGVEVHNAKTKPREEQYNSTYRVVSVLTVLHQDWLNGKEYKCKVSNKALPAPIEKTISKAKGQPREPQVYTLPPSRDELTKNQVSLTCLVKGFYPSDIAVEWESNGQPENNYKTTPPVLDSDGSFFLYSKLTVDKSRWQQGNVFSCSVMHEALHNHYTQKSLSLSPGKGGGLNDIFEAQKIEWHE
# PROCEDURE SUMMARY: ELISA, E. coli scFv on biotinylated TRCW5
READOUT TYPE: EC50

[[record]]
binder = "CD3B1131 (scFv, also called CD381131) scFv: EVQLVQSGAEVKKPGESLRISCKASGYTFTRSTMHWVRQMPGKGLEWMGYINPSSAYTNYNPSFQGHVTLSADKSISTAYLQWSSLKASDTAMYYCARPQVHYDYNGFPYWGQGTLVTVSSGGSEGKSSGSGSESKSTGGSDIQLTQSPSSLSASVGDRVTITCSASSSVSYMNWYQQKPGTSPKRLIYDSSKLASGVPSRFSGSGSGTDYTLTISSLQPEDFATYYCQQWSRNPPTFGGGTKVEIK"
reported_value = "1.14 nM"

[[record]]
binder = "CD3B1135 (scFv) scFv: EIVLTQSPATLSLSPGERATLSCSASSSVSYMNWYQQKPGTSPRRLIYDSSKLASGIPARFSGSGSGRDYTLTISSLEPEDFAVYYCQQWSRNPPTFGGGTKVEIKGGSEGKSSGSGSESKSTGGSQVQLVQSGAEVKKPGSSVKVSCKASGYTFTRSTMHWVRQAPGQGLEWMGYINPSSAYTNYNQKFQGRVTLTADKSTSTAYMELSSLRSEDTAVYYCARPQVHYDYNGFPYWGQGTLVTVSS"
reported_value = "1.04 nM"

[[record]]
binder = "CD3B1132 (scFv) scFv: EVQLVQSGAEVKKPGESLRISCKASGYTFTRSTMHWVRQMPGKGLEWMGYINPSSAYTNYNPSFQGHVTLSADKSISTAYLQWSSLKASDTAMYYCARPQVHYDYNGFPYWGQGTLVTVSSGGSEGKSSGSGSESKSTGGSEIVLTQSPATLSLSPGERATLSCSASSSVSYMNWYQQKPGTSPRRLIYDSSKLASGIPARFSGSGSGRDYTLTISSLEPEDFAVYYCQQWSRNPPTFGGGTKVEIK"
reported_value = "~1.1 nM"

